All figures here come from paper PMC3421229.

Target: LdisPBP1 (Lymantria dispar, UniProt O16105)
Experiment: competitive fluorescence binding assay with 1-NPN as probe, LdisPBP1
Conditions: PBP1[Ki(μM)] pH7.3, pH 7.3, n=3, 2 μM protein and 1-NPN
Consider the following molecules and their measured Ki readings.
Give the number; µM is assumed, so skip it.

// known answers, use as guide
molecule: OCCCCC1OC12CC2 (stereo not shown) [OXP2, 4-(1-oxaspiro[2.2]pent-2-yl)butan-1-ol]
Ki, µM: 2.99

molecule: O=Cc1ccccc1O [Sal, Salicylaldehyde]
Ki, µM: 2.93

molecule: O=C(CCCCC(=O)OCC1CCC2OC2C1)OCC1CCC2OC2C1 (stereo not shown) [Bis, Bis(3,4-epoxycyclohexylmethyl) adipate]
Ki, µM: 3.25

Query molecule follows.
Enquiry: Please report the measured Ki for CCCCCCCCCCC1OC12CC2 (stereo not shown) [OXP1, 2-decyl-1-oxaspiro[2.2]pentane]
Return: 1.87

###

Target: LdisPBP1 (Lymantria dispar)
Experiment: fluorescence titration of 1-NPN with LdisPBP1
Type: binding
Details: dissociation constant of the LdisPBP1/1-NPN complex, pH 5.5
parameter measured: Kd (nM)
Give the number; nM is assumed, so skip it.

Enquiry: Please report the measured Kd for c1ccc(Nc2cccc3ccccc23)cc1
Return: 1710

###

Molecular target: LdisPBP1 (Lymantria dispar)
Sequence (O16105 20-162): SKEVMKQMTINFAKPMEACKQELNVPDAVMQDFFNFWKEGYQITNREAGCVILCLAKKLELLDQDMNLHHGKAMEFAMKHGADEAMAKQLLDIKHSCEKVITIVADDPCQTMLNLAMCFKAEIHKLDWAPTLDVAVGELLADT
Test: competitive fluorescence binding assay with 1-NPN as probe, LdisPBP1
Conditions: PBP1[Ki(μM)] pH5.5, pH 5.5, n=3, 2 μM protein and 1-NPN
Consider the following compounds and their measured Ki readings.
Give the number; µM is assumed, so skip it.

// known answers, use as guide
compound: CCCCCCCCCCC1OC12CC2 (stereo not shown) [OXP1, 2-decyl-1-oxaspiro[2.2]pentane]
Ki (µM): 0.68
--
compound: O=Cc1ccccc1O
Ki (µM): 3.05
--
compound: O=C(CCCCC(=O)OCC1CCC2OC2C1)OCC1CCC2OC2C1 (stereo not shown) [Bis, Bis(3,4-epoxycyclohexylmethyl) adipate]
Ki (µM): 2.2

Enquiry: Please report the measured Ki for OCCCCC1OC12CC2 (stereo not shown) [OXP2, 4-(1-oxaspiro[2.2]pent-2-yl)butan-1-ol]
Return: 6.33

###

Target: LdisPBP2 (Lymantria dispar)
Sequence (O16106 21-165): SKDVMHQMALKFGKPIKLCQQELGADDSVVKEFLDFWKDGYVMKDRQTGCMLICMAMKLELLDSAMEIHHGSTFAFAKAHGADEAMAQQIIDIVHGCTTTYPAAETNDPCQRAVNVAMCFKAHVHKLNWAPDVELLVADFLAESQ
Experiment: competitive fluorescence binding assay with 1-NPN as probe, LdisPBP2
Conditions: PBP2[Ki(μM)] pH5.5, pH 5.5, n=3, 2 μM protein and 1-NPN
Consider the following compounds and their measured Ki readings.
Give the number; µM is assumed, so skip it.

compound: O=Cc1ccccc1O [Sal, Salicylaldehyde]
system under test: LdisPBP2 (Lymantria dispar)
unit abbreviation: µM
Ki: 6.06

Enquiry: Please report the measured Ki for O=C(CCCCC(=O)OCC1CCC2OC2C1)OCC1CCC2OC2C1 (stereo not shown) [Bis, Bis(3,4-epoxycyclohexylmethyl) adipate]
Return: 3.54

Enquiry: Please report the measured Ki for CCCCCCCCCCC1OC12CC2 (stereo not shown) [OXP1, 2-decyl-1-oxaspiro[2.2]pentane]
Return: 1.88

Enquiry: Please report the measured Ki for OCCCCC1OC12CC2 (stereo not shown) [OXP2, 4-(1-oxaspiro[2.2]pent-2-yl)butan-1-ol]
Return: 5.14
